Target: PAR2 (HT-29 cells, trypsin activation) (Homo sapiens, UniProt P55085)
Construct: host or cells: HT-29 cells
Sequence (P55085 26-397): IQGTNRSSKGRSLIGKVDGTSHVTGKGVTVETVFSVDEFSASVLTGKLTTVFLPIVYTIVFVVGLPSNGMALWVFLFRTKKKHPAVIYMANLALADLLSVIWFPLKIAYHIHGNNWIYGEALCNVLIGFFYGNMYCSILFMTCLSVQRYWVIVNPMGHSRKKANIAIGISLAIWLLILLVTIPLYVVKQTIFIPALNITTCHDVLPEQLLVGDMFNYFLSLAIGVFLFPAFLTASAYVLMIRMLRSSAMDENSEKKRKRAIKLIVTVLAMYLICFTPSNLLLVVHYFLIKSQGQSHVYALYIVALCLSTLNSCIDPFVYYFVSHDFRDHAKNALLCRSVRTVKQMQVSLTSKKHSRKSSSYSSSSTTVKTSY
Assay: Ca FLIPR TETRA assay, ANTAGONIST mode, stimulation with 3.1 U/mL trypsin
Type: cell-based
Settings: HT-29 cells, antagonist mode, stimulation with 3.1 U/mL trypsin
pIC50: −log10 of the molar value.

Molecule	pIC50
C[C@H]1CN(C(=O)c2cn3nc(-c4ccc(F)cc4)cc(C(C)(C)C)c3n2)C(C)(C)C(=O)N1	6.12
Cc1cc(C(=O)N2CCN(C(=O)c3cn4nc(-c5ccc(C)c(F)c5)cc(C(C)(C)C)c4n3)C(C)(C)C2)[nH]n1	9.15
CC(C)c1cc(-c2ccc(F)c(Cl)c2)nn2cc(C(=O)N3CCNCC3(C)C)nc12	6.57
CC(C)(C)c1cc(-c2ccc(F)c(Cl)c2)nn2cc(C(=O)N3CCNC(=O)C3(C)C)nc12	8.59
Cc1nc(C(=O)N2CCN(C(=O)c3cn4nc(-c5ccc(F)c(C)c5)cc(C(C)C)c4n3)C(C)(C)C2)c[nH]1	8.13
CC(C)c1cc(-c2ccc(C(F)(F)F)cc2)nn2cc(C(=O)N3CCN(C(=O)c4ncccn4)CC3(C)C)nc12	7.98
Cc1ncc(C(=O)N2CCN(C(=O)c3cn4nc(-c5ccc(F)cc5)cc(C(C)(C)C)c4n3)C(C)(C)C2)[nH]1	8.89
CC(C)c1cc(-c2ccc(F)cc2)nn2cc(C(=O)N3CCN(C(=O)C4CC(O)(C(F)(F)F)C4)CC3(C)C)nc12 (stereo not shown)	9.52
Cc1cc(-c2cc(C(C)(C)C)c3nc(C(=O)N4CCN(c5c[nH]cn5)C(=O)C4(C)C)cn3n2)ccc1F	8.15
CC(C)c1cc(-c2cccc(C(F)(F)F)c2)nn2cc(C(=O)N3CCN(C(=O)C(C)(C)O)CC3(C)C)nc12	6.26
Cc1ccc(-c2cc(C(C)(C)C)c3nc(C(=O)N4CCN(c5cn[nH]c5)C(=O)C4(C)C)cn3n2)cc1F	8.82
Cc1cc(C(=O)N2CCN(C(=O)c3cn4nc(C5CCC(F)(F)CC5)cc(C(C)(C)C)c4n3)C(C)(C)C2)[nH]n1	8.70
CN(C)C(=O)C(C)(C)c1cc(-c2ccc(F)cc2)nn2cc(C(=O)N3CCNC(=O)C3(C)C)nc12	5.05
CC(C)c1cc(-c2ccc(F)cc2)nn2cc(C(=O)N3CCN(C(=O)c4cccnn4)CC3(C)C)nc12	7.38
CC(C)(C)c1cc(-c2ccc(F)cc2)nn2cc(C(=O)N3CCN(C(=O)c4nnn[nH]4)CC3(C)C)nc12	7.35
Cc1cc(-c2cc(C(C)C)c3nc(C(=O)N4CCN(C(=O)[C@H]5C[C@@](O)(C(F)(F)F)C5)CC4(C)C)cn3n2)ccc1F	8.25
CC(C)(C)c1cc(-c2ccc(F)c(Cl)c2)nn2cc(C(=O)N3CCN(C(=O)c4ccccn4)CC3(C)C)nc12	8.68
Cc1ccc(-c2cc(C(C)C)c3nc(C(=O)N4CCN(C(=O)c5nc(C)n[nH]5)CC4(C)C)cn3n2)cc1	8.32
COC(=O)C1CC(C(=O)N2CCN(C(=O)c3cn4nc(-c5ccc(Cl)cc5)cc(C(C)C)c4n3)C(C)(C)C2)C1 (stereo not shown) [Compound I-545]	8.72
